biological target: pancreatic lipase (PL) (Sus scrofa); construct: lipase (porcine pancreas); purchased Shanghai Yuanye Co., Ltd., Shanghai, China; host or cells: porcine pancreas; experiment: Fluorescence quenching and binding interaction with PL (Stern-Volmer, double logarithmic, Van't Hoff); set-up: species or system porcine; conditions: T 310 K
Sequence (P00591 whole entry): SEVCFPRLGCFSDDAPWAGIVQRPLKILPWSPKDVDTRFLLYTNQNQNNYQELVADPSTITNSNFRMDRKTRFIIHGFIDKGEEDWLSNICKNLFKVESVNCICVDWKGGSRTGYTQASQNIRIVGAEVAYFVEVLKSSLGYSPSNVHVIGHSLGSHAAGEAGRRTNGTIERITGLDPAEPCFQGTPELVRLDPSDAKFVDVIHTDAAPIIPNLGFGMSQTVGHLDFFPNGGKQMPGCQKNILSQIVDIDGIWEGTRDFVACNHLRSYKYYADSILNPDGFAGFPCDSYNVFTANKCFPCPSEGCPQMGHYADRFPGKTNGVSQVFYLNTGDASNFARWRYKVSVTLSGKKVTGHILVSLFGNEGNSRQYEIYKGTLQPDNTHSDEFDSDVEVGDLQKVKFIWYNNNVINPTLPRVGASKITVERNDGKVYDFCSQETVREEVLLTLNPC
ASSAY READOUT: Kq (quenching rate constant)

SMILES DATA	ASSAY READOUT	EXPERIMENTAL RESULT
Nc1ccc(-c2c3nc(c(-c4ccc(N)cc4)c4ccc([nH]4)c(-c4ccc(N)cc4)c4nc(c(-c5ccc(N)cc5)c5ccc2[nH]5)C=C4)C=C3)cc1	Kq (quenching rate constant)	8.17 ± 0.08 ×10^12 L/mol/s
O=C(O)c1ccc(-c2c3nc(c(-c4ccc(C(=O)O)cc4)c4ccc([nH]4)c(-c4ccc(C(=O)O)cc4)c4nc(c(-c5ccc(C(=O)O)cc5)c5ccc2[nH]5)C=C4)C=C3)cc1	Kq (quenching rate constant)	4.50 ± 0.06 ×10^12 L/mol/s
O=C([O-])c1ccc(C2=C3C=CC(=N3)C(c3ccc(C(=O)[O-])cc3)=C3C=CC(=N3)C(=c3ccc(=C([O-])[O-])cc3)c3ccc([n-]3)C(c3ccc(C(=O)[O-])cc3)=C3C=CC2=N3)cc1.[67Cu+2].[H+].[H+].[H+].[H+]	Kq (quenching rate constant)	2.32 ± 0.03 ×10^12 L/mol/s

Endpoint output: Kq (quenching rate constant) of `Oc1ccc(-c2c3nc(c(-c4ccc(O)cc4)c4ccc([nH]4)c(-c4ccc(O)cc4)c4nc(c(-c5ccc(O)cc5)c5ccc2[nH]5)C=C4)C=C3)cc1` . Value?
1.11 ± 0.04 ×10^12 L/mol/s

====

target: pancreatic lipase (PL) (Sus scrofa); construct: lipase (porcine pancreas); purchased Shanghai Yuanye Co., Ltd., Shanghai, China; host or cells: porcine pancreas; experiment: Fluorescence quenching and binding interaction with PL (Stern-Volmer, double logarithmic, Van't Hoff); design: species or system porcine; conditions: T 310 K
# Ksv (fluorescence quenching constant) values compiled below

SMILES DATA	MEASUREMENT TARGET	Ksv (fluorescence quenching constant)
Nc1ccc(-c2c3nc(c(-c4ccc(N)cc4)c4ccc([nH]4)c(-c4ccc(N)cc4)c4nc(c(-c5ccc(N)cc5)c5ccc2[nH]5)C=C4)C=C3)cc1	pancreatic lipase (PL) (Sus scrofa)	8.17 ± 0.08 ×10^4 L/mol
Oc1ccc(-c2c3nc(c(-c4ccc(O)cc4)c4ccc([nH]4)c(-c4ccc(O)cc4)c4nc(c(-c5ccc(O)cc5)c5ccc2[nH]5)C=C4)C=C3)cc1	pancreatic lipase (PL) (Sus scrofa)	1.11 ± 0.04 ×10^4 L/mol
O=C(O)c1ccc(-c2c3nc(c(-c4ccc(C(=O)O)cc4)c4ccc([nH]4)c(-c4ccc(C(=O)O)cc4)c4nc(c(-c5ccc(C(=O)O)cc5)c5ccc2[nH]5)C=C4)C=C3)cc1	pancreatic lipase (PL) (Sus scrofa)	4.50 ± 0.06 ×10^4 L/mol

Here's the next entry for you.
Endpoint output: Ksv (fluorescence quenching constant) of `O=C([O-])c1ccc(C2=C3C=CC(=N3)C(c3ccc(C(=O)[O-])cc3)=C3C=CC(=N3)C(=c3ccc(=C([O-])[O-])cc3)c3ccc([n-]3)C(c3ccc(C(=O)[O-])cc3)=C3C=CC2=N3)cc1.[67Cu+2].[H+].[H+].[H+].[H+]` . Value?
2.32 ± 0.03 ×10^4 L/mol

Source of measurements: paper PMC12251151
